Target: T1, TIGIT (UniProt Q495A1 22-141, limits assumed)
T1 construct: also called T cell immunoreceptor with Ig and ITIM domains; hTIGIT
T1 sequence (looked up): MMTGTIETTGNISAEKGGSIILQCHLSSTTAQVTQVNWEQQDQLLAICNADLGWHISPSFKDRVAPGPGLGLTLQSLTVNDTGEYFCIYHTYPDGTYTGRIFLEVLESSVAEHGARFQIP
Assay: SPR, VHH-V5-His
Rule: measured Kd below 300 nM gets T; anything equal to or greater than 300 nM gets F.

- binder: "TIGIT-31-35 (VHH-V5-His) (VHH, not shown: V5-His tag) VHH: EVQLVESGGGLVQPGGSLRLSCAASGFTFSTSWMGWFRQAPGKERELVASITSGGTTNYADSVKGRFTISADNSKNTAYLQMNSLKPEDTAVYYCAADVWYGSTWRNWGQGTLVTVSS"
  discrete-label: "F"

Is Kd strictly under 300 nM for the entry TIGIT-30-58 (VHH-V5-His) (VHH, not shown: V5-His tag) VHH: EVQLVESGGGLVQAGGSLRLSCAASGFAFGDSWMGWFRQAPGKEREWVSGISSGGGRTYYADSVKGRFTISADNAKNTVYLQMNSLKPEDTAVYYCAADVWYGSTWRNWGQGTQVTVSS ?
F

Is Kd strictly under 300 nM for the entry TIGIT-31-01 (VHH-V5-His) (VHH, also called TIGIT-31-1; 31-1; not shown: V5-His tag) VHH: EVQLVESGGGLVQPGGSLRLSCAASGFTFDRSWMGWFRQAPGKEREVVASITSGGSTYYADSVKGRFTISADNSKNTAYLQMNSLKPEDTAVYYCAADVWYGSTWRNWGQGTLVTVSS ?
T

Is Kd strictly under 300 nM for the entry TIGIT-31-08 (VHH-V5-His) (VHH, also called TIGIT-31-8; 31-8; not shown: V5-His tag) VHH: EVQLVESGGGLVQPGGSLRLSCAASGFTFSTSWMGWFRQAPGKERELVAARNSGGNTNYADSVKGRFTISADNSKNTAYLQMNSLKPEDTAVYYCAADVWYGSTWRNWGQGTLVTVSS ?
T

Is Kd strictly under 300 nM for the entry TIGIT-31-06 (VHH-V5-His) (VHH, also called TIGIT-31-6; 31-6; not shown: V5-His tag) VHH: EVQLVESGGGLVQPGGSLRLSCAASGFTFSTSWMGWFRQAPGKERELVASITSGGSTYYADSVKGRFTISADNSKNTAYLQMNSLKPEDTAVYYCAADVWYGSTWRNWGQGTLVTVSS ?
T

Is Kd strictly under 300 nM for the entry TIGIT-31-34 (VHH-V5-His) (VHH, not shown: V5-His tag) VHH: EVQLVESGGGLVQPGGSLRLSCAASGRSRYGMGWFRQAPGKEREFVSAISWSGISTYYADSVKGRFTISADNSKNTAYLQMNSLKPEDTAVYYCAATQWGSSGWKQARWYDWGQGTLVTVSS ?
F

Is Kd strictly under 300 nM for the entry TIGIT-30-54 (VHH-V5-His) (VHH, not shown: V5-His tag) VHH: EVQLVESGGGLVQAGGSLRLSCAASGFTFRSFGMGWFRQAPGKEREFVASTIWSRGDTYYADSVKGRFTISADNAKNTVYLQMNSLKPEDTAVYYCASSPYGPLYRSTHYYDWGQGTQVTVSS ?
F

Is Kd strictly under 300 nM for the entry TIGIT-31-56 (VHH-V5-His) (VHH, not shown: V5-His tag) VHH: EVQLVESGGGLVQPGGSLRLSCAASGRIFRRNSMGWFRQAPGKEREFVAVITRSGGGEVTTYADSVKGRFTINADNSKNTAYLQMNSLKPEDTAVYYCAMSSVTRGSSDWGQGTLVTVST ?
F
